# System: UO-31
# Protocol: NCI tumour cell line growth inhibition, 48 h
The source made the active and inactive calls. Rule as the data show it: active = GI50 up to about 1.1 µM and inactive = higher.
Could you please pick one outcome from this set? 1 for active, -1 for inactive

Dear all, I need the recorded test outcome for C#CCOCn1ccc(=O)[nH]c1=O , thank you. -1

# lookup: test call for C[C@]12CC/C(=N\OC(=O)Nc3ccccc3)C=C1CC[C@@H]1C2CC[C@@]2(C)C1CC[C@@H]2OC(=O)Nc1ccccc1 (stereo not given in full) -1

Check the results log: what was the call for CCOC(=O)C(N)CSC(=O)NC (stereo not given) ? -1

For COC1C=CC23c4cc5c(cc4C(O)OC2CN(C)C3C1)OCO5 (stereo not given) , which call appears in the assay record? -1

Hello, I am checking results. What call was entered for COc1ccc2nc(-c3cccc(N(C)C)c3)cc(O)c2c1 ? 1

Call for entry COc1cccc(C2CC(=O)c3cc(N4CCCC4)ccc3N2)c1 (stereo not given) : 1

Check the results log: what was the call for CC1=NN(c2nc(N)nc(COCc3nc(N)nc(N4N=C(C)CC4(C)C)n3)n2)C(C)(C)C1 ? -1

# lookup: test call for Oc1ccccc1-c1nn2c(CCCCCCCCc3nnc4sc(-c5ccccc5O)nn34)nnc2s1 -1

What was the test verdict on CC1=C/C(=N\N(C)C)C(C(O)(C(F)(F)F)C(F)(F)F)C(C)(C)C1 (stereo not given) ? -1

Per the records of this test, what outcome belongs to Cc1cccc(C(C)C)c1NC(=O)C(=O)CC(=O)c1c(C)[n+]([O-])c2ccccc2[n+]1[O-] ? -1
